Every entry's value here was drawn from patent US12590062B2.

# TARGET: PD-1/PD-L1 (Homo sapiens, UniProt Q9NZQ7)
# Sequence (Q9NZQ7 19-238 limits assumed): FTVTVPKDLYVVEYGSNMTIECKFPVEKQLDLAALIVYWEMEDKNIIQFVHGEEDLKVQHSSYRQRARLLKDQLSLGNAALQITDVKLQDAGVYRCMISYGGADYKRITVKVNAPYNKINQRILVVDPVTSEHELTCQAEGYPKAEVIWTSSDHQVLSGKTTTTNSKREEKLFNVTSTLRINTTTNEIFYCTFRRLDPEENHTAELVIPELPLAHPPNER
# PROTOCOL_NOTES: PD-1/PD-L1 biochemical protein-protein interaction assay (ALPHA)
# CONDITION: 0.3 nM His tagged PD-L1, 2.5 nM biotinylated Fc-PD-1, 60 minutes at 25° C., read-out: IC50 PD-L1-PD-1 Alpha IC50-mono PD-L1-fcP-D1
pIC50: −log10 of the molar value.
ENDPOINT_LABEL: pIC50

• COc1nc(-c2cccc(-c3cccc(-c4ccc5c(ccn5CCN(C)C)c4)c3Cl)c2Cl)ccc1CNC[C@@H]1CCC(=O)N1 = 8.52
• COc1nc(-c2cccc(-c3cccc(-c4nc5cc(CNCCO)cc(OC)c5o4)c3Cl)c2Cl)ccc1CNCCO = 9.68
• COc1nc(C(=O)Nc2cccc(-c3cccc(-c4ccc(CNC[C@@H]5CCC(=O)N5)c(OC)n4)c3Cl)c2Cl)ccc1CNC[C@@H]1CCC(=O)N1 = 9.85
• Cc1c(COc2cc(OCc3cncc(C#N)c3)c(CN[C@@](C)(CO)C(=O)O)cc2Cl)cccc1-c1cccc(-c2ccc(O[C@@H]3CCNC[C@H]3F)cc2)c1Cl = 9.14
• Cc1c(COc2cc(OCc3cncc(C#N)c3)c(CN[C@](C)(CO)C(=O)O)cc2Cl)cccc1-c1cccc(-c2ccc(OC3CN4CCC3CC4)cc2)c1C (stereo partly drawn) = 9.46

[P] Cc1c(COc2cc(OCc3nccs3)c(CNC[C@@H](O)CC(=O)O)cc2Cl)cccc1-c1cccc(COc2cc(OCc3nccs3)c(CNC[C@@H](O)CC(=O)O)cc2Cl)c1C
[Q] Cc1c(COc2cc(OCc3cncc(C#N)c3)c(CNC[C@@H](O)CC(=O)O)cc2Cl)cccc1-c1cccc(-c2ccc(OCCNC[C@@H](O)CC(=O)O)c(C(N)=O)c2)c1C
Q. # returns the entry with the larger pIC50; inputs P and Q Answer format: the label of the selected item.
A. Q
(Q: 10.29, P: 8.82)

[a] COc1nc(OCc2cccc(-c3cccc(COc4nc(OC)c(CNC[C@@H](O)CC(=O)O)cc4I)c3C)c2C)c(I)cc1CNC[C@@H](O)CC(=O)O
[b] C[C@@](CO)(NCc1cc(Cl)c(OCc2cccc(-c3cccc(COc4cc(OCc5cncc(C#N)c5)c(CN[C@@](C)(CO)C(=O)O)cc4Cl)c3Br)c2Br)cc1OCc1cncc(C#N)c1)C(=O)O
Q. # returns the entry with the larger pIC50; inputs a and b Answer format: the label of the selected item.
A. b
(b: 10.19, a: 9.22)
